Can you tell me mass density for the items I'm about to list?
Settings: 298.15 K; 101.33 kPa; Liquid; Vibrating tube method
One number for each entry, in kg/m3.

A selection of reference data follows.
CCCC[n+]1ccc(C)cc1.N#CC(=C=[N-])C#N [1-butyl-4-methylpyridinium tricyanomethanide] ... 1036.68
CCCCCCC ... 679.48
CC(C)=O ... 785.23
c1ccncc1 ... 982.85

Could you now look at the following compound, please?
-- ask Answer with the recorded mass density for the compound listed here: CCCO
-- reply 799.52

----------
Test: refractive index (Na D-line) (dimensionless)
Details: 298.15 K; 101.33 kPa; Liquid; Standard Abbe refractometry
Can you tell me refractive index for the items I'm about to list?
Answers are plain numbers.

CCCCCCC ... 1.38519
CC(C)=O ... 1.356
c1ccncc1 ... 1.5094

Could you now look at the following compound, please?
-- ask Answer with the recorded refractive index for the compound listed here: CCCO
-- reply 1.38375
